test system: UACC-62 melanoma; assay: NCI tumour cell line growth inhibition, 48 h
recorded-endpoint: TGI

Sample records with TGI:
>  <compound>
CC[C@@H](/C=C\CCC(=O)C[C@H](O)CCC=C(C)C)O[Si](C(C)C)(C(C)C)C(C)C

>  <TGI>
> 100 µM

$$$$
>  <compound>
COC(=O)c1c(OC(C)=O)ccc2c1c1c(OC(C)=O)c3ccccc3c(OC(C)=O)c1n2Cc1ccccc1

>  <TGI>
20.3 µM

$$$$

# get_value(readout='TGI', item= CCOC(=O)c1ccc(C(=O)C(C(C)=O)C(=O)OC(C)(C)C)[nH]1 (centres undefined) )
> 100 µM

# get_value(readout='TGI', item= O=C(/C=C/c1csc(-c2ccccc2)n1)NCc1ccc(C(=O)NCc2ccccc2)cc1 )
> 100 µM

# get_value(readout='TGI', item= CNS(=O)(=O)NNS(=O)(=O)c1ccc(Cl)cc1 )
> 100 µM

# get_value(readout='TGI', item= O=C(CSC1=NCCN1)Nc1ccccc1 )
52.4 µM

# get_value(readout='TGI', item= CCO/C=C1\N=C(c2ccccc2Br)OC1=O )
> 100 µM

# get_value(readout='TGI', item= CC1OC(OC2C(OC(=O)[C@@H]3CC(C)(C)C[C@H]4C5=CC[C@@H]6[C@@]7(C)C[C@H](O)[C@H](OC8OC(CO)C(O)C(O)C8O)[C@@](C)(CO)[C@@H]7[C@H](O)C[C@@]6(C)[C@]5(C)CC[C@@]34C)OCC(O)C2O)C(O)C(O)C1O (some centres undefined) )
> 7.5 µM

# get_value(readout='TGI', item= Nc1ccccc1SCc1csc(-c2ccc(Cl)cc2)n1 )
> 64 µM

# get_value(readout='TGI', item= COc1ccc2oc(=N)c(C(=O)Nc3ccccn3)cc2c1 )
> 100 µM

# get_value(readout='TGI', item= O=c1[nH]cnc2c(C3NC(CO)C(O)C3O)c[nH]c12 (centres undefined) )
> 100 µM

# get_value(readout='TGI', item= COc1ccc(C(=O)c2[nH]c(Nc3ccc(Cl)cc3)c(C(=S)Nc3ccccc3)c2N)cc1 )
> 100 µM

# get_value(readout='TGI', item= COc1ccc(-c2cc(=O)c3c(OC)c(OC)c(OC)c(OC)c3o2)cc1 )
84 µM

# get_value(readout='TGI', item= CC(C)[C@@H]1ON1C(C)c1ccccc1 (some centres undefined) )
> 100 µM

# get_value(readout='TGI', item= O=C(O)CNC(=O)c1c2ccccc2nc2ccccc12 )
> 100 µM

# get_value(readout='TGI', item= COc1cc(-c2cc(-c3cc([N+](=O)[O-])c(/C=N/NC(=O)c4ccncc4)o3)ccc2OC)ccc1C )
> 100 µM

# get_value(readout='TGI', item= Nc1ccc(C(=O)NN2C(=O)C(Cl)C2c2ccccc2)cc1 (centres undefined) )
> 100 µM

# get_value(readout='TGI', item= C[C@H]1C=C2[C@@H]3CC(C)(C(=O)O)CC[C@]3(C)CC[C@]2(C)[C@]2(C)CC[C@H]3C(C)(C)[C@@H](OC(=O)c4cccc5c(=O)c6ccccc6[nH]c45)CC[C@]3(C)[C@@H]12 (some centres undefined) )
> 100 µM

# get_value(readout='TGI', item= CCOc1nc(N)nc(C)c1N=Nc1ccc(Cl)cc1 )
> 100 µM
